# experimentalSystem: hIAPP1-37 (Homo sapiens)
# Sequence (P10997 34-70 limits assumed): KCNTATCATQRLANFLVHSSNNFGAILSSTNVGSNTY
# procedureDetails: Thioflavin T fluorescence assay of fibril formation
# assayConditions: 4 μM hIAPP1-37, gradual concentration of phenol red; read-out: IC50 of inhibition of fibril formation (ThT fluorescence)
pIC50: −log10 of the molar value.
quantityMeasured: pIC50

IN: Item `O=S1(=O)OC(c2ccc(O)cc2)(c2ccc(O)cc2)c2ccccc21` with hIAPP1-37 (Homo sapiens) - pIC50?
OUT: ~5.60
